Target: caspase 3 (Homo sapiens, UniProt P42574)
Sequence (P42574 29-175 limits assumed): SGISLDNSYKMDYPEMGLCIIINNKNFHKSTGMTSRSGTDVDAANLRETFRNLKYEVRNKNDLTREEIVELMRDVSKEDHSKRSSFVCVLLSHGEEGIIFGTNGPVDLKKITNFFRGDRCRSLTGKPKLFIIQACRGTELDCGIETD
Sequence (P42574 176-277 limits assumed): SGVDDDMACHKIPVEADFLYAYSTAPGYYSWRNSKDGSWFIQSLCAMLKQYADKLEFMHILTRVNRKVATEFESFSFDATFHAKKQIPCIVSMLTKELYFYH
pIC50: −log10 of the molar value.
property: pIC50

| inputSmiles | targetDesc | recordedValue |
| --- | --- | --- |
| CN1C(=O)C(=O)c2cc(S(=O)(=O)N3CCC[C@H]3CNC(=O)c3ccc(-c4c5ccc(=O)cc-5oc5cc(O)ccc45)c(C(=O)O)c3)ccc21 | caspase 3 (Homo sapiens, UniProt P42574) | 8.00 |
